Provide the recorded viability, T/C for the entries that follow.
Tested on: 817829-284-R-J1-PDC complex spheroids, viability
Experiment: Anticancer human tumor 817829-284-R-J1-PDC patient-derived colon adenocarcinoma cell line growth inhibition [CLK]
Conditions: second compound 0.0316 µM; first compound 3.16 µM; stronger effect = lower value
Report the figure in % without appending any unit label.

Quick one: viability, T/C of CC1(C)CCC(CN2CCN(c3ccc(C(=O)NS(=O)(=O)c4ccc(NCC5CCOCC5)c([N+](=O)[O-])c4)c(Oc4cnc5[nH]ccc5c4)c3)CC2)=C(c2ccc(Cl)cc2)C1 + CN1CCN(c2cc(C(=O)Nc3cc4cc(-c5cnn(C)c5)ccc4cn3)ccn2)CC1 ?
63.2

Query (compound): C#Cc1c(F)ccc2cc(O)cc(-c3ncc4c(N5CC6CCC(C5)N6)nc(OCC56CCCN5CC(F)C6)nc4c3F)c12 (configuration not stated) + CN1CCN(c2cc(C(=O)Nc3cc4cc(-c5cnn(C)c5)ccc4cn3)ccn2)CC1 ; field requested: viability, T/C
57.3

I would be grateful if you could share the reported viability, T/C for COC1C=CCC(C)C(C)S(=O)(=O)NC(=O)c2ccc3c(c2)N(CC2CCC21)CC1(CCCc2cc(Cl)ccc21)CO3 (configuration not stated) + CNC(=O)c1ccc(Nc2nc(OC3CCCC3)c3c(-c4ccc5nc(C)oc5c4)c[nH]c3n2)c(OC)c1 .
45.3

What viability, T/C value was documented for this compound, CC(=O)O[C@H]1C(=O)[C@@]2(C)[C@H]([C@H](OC(=O)c3ccccc3)[C@]3(O)C[C@H](OC(=O)[C@H](O)[C@@H](NC(=O)c4ccccc4)c4ccccc4)C(C)=C1C3(C)C)[C@]1(OC(C)=O)CO[C@@H]1C[C@@H]2O + CN1CCN(c2cc(C(=O)Nc3cc4cc(-c5cnn(C)c5)ccc4cn3)ccn2)CC1 ?
5.22

Need viability, T/C, item Nc1ccn(C2OC(CO)C(O)C2(F)F)c(=O)n1 (configuration not stated) + CNC(=O)c1ccc(Nc2nc(OC3CCCC3)c3c(-c4ccc5nc(C)oc5c4)c[nH]c3n2)c(OC)c1
5.09

Look at this compound and give its reported viability, T/C. Nc1ccccc1NC(=O)c1ccc(CNC(=O)OCc2cccnc2)cc1 + CN1CCN(c2cc(C(=O)Nc3cc4cc(-c5cnn(C)c5)ccc4cn3)ccn2)CC1
3.59

Value lookup for viability, T/C; key = Nc1ccn(C2OC(CO)C(O)C2(F)F)c(=O)n1 (configuration not stated) + CN1CCN(c2cc(C(=O)Nc3cc4cc(-c5cnn(C)c5)ccc4cn3)ccn2)CC1
3.03

* * *

Test system: 817829-284-R-J1-PDC complex spheroids, viability
Experiment: Anticancer human tumor 817829-284-R-J1-PDC cell line growth inhibition [CLK];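 note: spheroids exposed to the agents for seven days before readout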
Conditions: second compound 0.316 µM; first compound 0.1 µM; stronger effect = lower value
What viability, T/C was measured for each of the following?
Value expressed in %; do not type the unit.

Endpoint output: viability, T/C of O=C(c1cc(Cc2n[nH]c(=O)c3ccccc23)ccc1F)N1CCN(C(=O)C2CC2)CC1 + CNC(=O)c1ccc(Nc2nc(OC3CCCC3)c3c(-c4ccc5nc(C)oc5c4)c[nH]c3n2)c(OC)c1 . Value?
22

Name the reported viability, T/C value associated with the compound CC1(C)CCC(CN2CCN(c3ccc(C(=O)NS(=O)(=O)c4ccc(NCC5CCOCC5)c([N+](=O)[O-])c4)c(Oc4cnc5[nH]ccc5c4)c3)CC2)=C(c2ccc(Cl)cc2)C1 + CN1CCN(c2cc(C(=O)Nc3cc4cc(-c5cnn(C)c5)ccc4cn3)ccn2)CC1
1.97

Which viability, T/C is listed for Cn1ncnc1[C@H]1c2n[nH]c(=O)c3cc(F)cc(c23)N[C@@H]1c1ccc(F)cc1 + CN1CCN(c2cc(C(=O)Nc3cc4cc(-c5cnn(C)c5)ccc4cn3)ccn2)CC1 ?
1.89

Using the record for CCCS(=O)(=O)Nc1ccc(F)c(C(=O)c2c[nH]c3ncc(-c4ccc(Cl)cc4)cc23)c1F + CNC(=O)c1ccc(Nc2nc(OC3CCCC3)c3c(-c4ccc5nc(C)oc5c4)c[nH]c3n2)c(OC)c1 , report its viability, T/C.
22.6
